- System: ISC-enriched organoids
- METHOD NOTES: Primary screen, 384-well 2.5-D organoid differentiation (ENR+CD, 6 days, Target Selective Inhibitor Library, vs whole-plate median): ATP (CellTiter-Glo 3D, CTG)
- CONDITION NOTES: Dose 2.00 uM; standard z score of FC
Counter-ions that a name gives are not always drawn.
PROPERTY: Z.CTG
Give a plain numeric answer without units written out.

Before answering, review these 3 worked examples.
O=C(N/N=C/c1ccc(O)c(O)c1)c1cc2ccccc2cc1O [Dynasore]
−0.364
CC(C)CC(=O)Nc1[nH]nc2c1CN(C(=O)C1CCN(C)CC1)C2(C)C [PHA-793887]
−0.344
Cc1c(Cc2ccc3ccccc3n2)c2cc(F)ccc2n1CC(=O)O [OC000459]
0.210

# next compound below
[in] Query: Z.CTG; subject: Cc1cc(C(C)(C)C)c(O)c(C)c1CC1=NCCN1 [Oxymetazoline HCl]
[out] −0.016

----------
- System: ISC-enriched organoids
- METHOD NOTES: Primary screen, 384-well 2.5-D organoid differentiation (ENR+CD, 6 days, Target Selective Inhibitor Library, vs whole-plate median): ATP (CellTiter-Glo 3D, CTG)
- CONDITION NOTES: strictly standardized mean difference; primary screen; 3rd of the 4 dose lines of the treatment (dose not given)
Where a name gives a salt, the structure may show the parent alone.
Listed here are molecules together with their documented SSMD.CTG.

Before answering, review these 6 worked examples.
Cc1ccc(C(=O)N(CCCN)[C@@H](c2nc3cc(Cl)ccc3c(=O)n2Cc2ccccc2)C(C)C)cc1 [Ispinesib (SB-715992)]
−1.118
CCn1c(=O)c2c(nc(/C=C/c3ccc(OC)c(OC)c3)n2C)n(CC)c1=O
−0.412
C[C@](O)(COc1ccc(C#N)cc1)C(=O)Nc1ccc(C#N)c(C(F)(F)F)c1
−0.199
Cc1ccc(NC(=O)c2ccc(CN3CCN(C)CC3)cc2)cc1Nc1nccc(-c2cccnc2)n1 [Imatinib (STI571)]
0.194
CCc1c2c(nc3ccc(OC(=O)N4CCC(N5CCCCC5)CC4)cc13)-c1cc3c(c(=O)n1C2)COC(=O)[C@]3(O)CC [Irinotecan HCl Trihydrate]
−1.060
Clc1ccc(N/N=C(\c2ccccc2)c2ccccn2)nc1
0.282

[in] Query: SSMD.CTG; subject: CCCCc1nc(Cl)c(CO)n1Cc1ccc(-c2ccccc2-c2nnn[n-]2)cc1.[K+]
[out] −0.274

[in] Query: SSMD.CTG; subject: COc1ccc(CNCc2cccc3ccccc23)cc1.Cl [ML133 HCl]
[out] −0.560

----------
- System: ISC-enriched organoids
- METHOD NOTES: Primary screen, 384-well 2.5-D organoid differentiation (ENR+CD, 6 days): basal lysozyme secretion (LYZ.NS)
- Format: cell-based, murine
- CONDITION NOTES: Dose 2.00 uM; primary screen
Classification scheme (Z.LYZ.NS (standard z score)): low (below 0.2), middle (0.2 to below 0.6), high (0.6 or more)

Examples from the recorded data:
NC(=O)c1ccc(-c2nc(-c3ccccn3)c(-c3ccc4c(c3)OCO4)[nH]2)cc1
high
Cc1nnc(C(=O)NC(C)(C)c2nc(C(=O)NCc3ccc(F)cc3)c(O)c(=O)n2C)o1
middle
Cl.NC(=O)c1cnc(N[C@@H]2CCCC[C@@H]2N)nc1Nc1cccc(-n2nccn2)c1 [PRT062607 (P505-15, BIIB057) HCl]
low
CCn1c(N)c(C(=O)NC)c(=O)c2ccc(C#C[C@@](C)(O)COC)nc21
low
CC(C)[C@H](O)C(=O)N[C@@H](C)C(=O)N[C@@H]1C(=O)N(C)CCc2ccccc21
low
CC(C)(C)c1cnc(CSc2cnc(NC(=O)C3CCNCC3)s2)o1
low
CO[C@H]1C[C@@H]2CC[C@@H](C)[C@@](O)(O2)C(=O)C(=O)N2CCCC[C@H]2C(=O)O[C@H]([C@H](C)C[C@@H]2CC[C@@H](OP(C)(C)=O)[C@H](OC)C2)CC(=O)[C@H](C)/C=C(\C)[C@@H](O)[C@@H](OC)C(=O)[C@H](C)C[C@H](C)/C=C/C=C/C=C/1C
high
COc1ccc(C(=O)Nc2sc3c(c2C(N)=O)CCCC3)cc1OC
low
Cc1ccc(-n2nccn2)c(C(=O)N2CCN(c3nc4cc(Cl)ccc4o3)CC[C@H]2C)c1
high
CO[C@H]1C[C@@H]2CC[C@@H](C)[C@@](O)(O2)C(=O)C(=O)N2CCCC[C@H]2C(=O)O[C@H]([C@H](C)C[C@@H]2CC[C@@H](OC(=O)C(C)(CO)CO)[C@H](OC)C2)CC(=O)[C@H](C)/C=C(\C)[C@@H](O)[C@@H](OC)C(=O)[C@H](C)C[C@H](C)/C=C/C=C/C=C/1C
high

[in] Band of CC(C)(C)c1cc(NC(=O)Nc2ccc(-c3cn4c(n3)sc3cc(OCCN5CCOCC5)ccc34)cc2)no1 ?
[out] low

[in] Band of O=C1NC(=O)/C(=C/c2cccc(C(F)(F)F)c2)S1 ?
[out] middle

[in] Band of CNC(=O)c1ccc2cc([C@@]3(O)CCn4cncc43)ccc2c1 ?
[out] high
